# DC50 annotations
Target: G4-RNA EBNA1
Experiment: HT-G4-FID assay: Thiazole Orange displacement from G4-RNA
Type: binding, Epstein-Barr virus
Details: K+-100 buffer, pH 7.3; triplicate assays

compound: O=C(NN=Cc1ccc2c(ccc[n+]2Cc2ccccc2)c1)c1ccc2ccc3ccc(C(=O)NN=Cc4ccc5c(ccc[n+]5Cc5ccccc5)c4)nc3c2n1.[Br-].[Br-] [Compound 12c]
test_target: G4-RNA EBNA1
output_unit: nM
DC50: 650
//
compound: CC[n+]1cccc2cc(C=NNC(=O)c3ccc4ccc(C(=O)NN=Cc5ccc6c(ccc[n+]6CC)c5)nc4n3)ccc21.[I-].[I-] [Compound 9b]
test_target: G4-RNA EBNA1
output_unit: nM
DC50: 800
//
compound: O=C(NN=Cc1ccc2c(ccc[n+]2Cc2ccccc2)c1)c1cccc(C(=O)NN=Cc2ccc3c(ccc[n+]3Cc3ccccc3)c2)n1.[Br-].[Br-] [Compound 3c]
test_target: G4-RNA EBNA1
output_unit: nM
DC50: 720
//
compound: C[n+]1ccc(C=NNC(=O)c2ccc3ccc4ccc(C(=O)NN=Cc5cc[n+](C)c6ccccc56)nc4c3n2)c2ccccc21.[I-].[I-] [Compound 11a]
test_target: G4-RNA EBNA1
output_unit: nM
DC50: 300
//
compound: CC[n+]1cccc2cc(C=NNC(=O)c3cccc(C(=O)NN=Cc4ccc5c(ccc[n+]5CC)c4)n3)ccc21.[I-].[I-] [Compound 3b]
test_target: G4-RNA EBNA1
output_unit: nM
DC50: 740
//
compound: C[n+]1ccc(C=NNC(=O)c2cccc(C(=O)NN=Cc3cc[n+](C)c4ccccc34)n2)c2ccccc21.[I-].[I-] [Compound 2a]
test_target: G4-RNA EBNA1
output_unit: nM
DC50: 260

====

Target: G4-RNA EBNA1
Assay: HT-G4-FID assay: Thiazole Orange displacement from G4-RNA
Type: binding, Epstein-Barr virus
Conditions: K+-100 buffer, pH 7.3; triplicate assays
# true = DC50 below 600 nM (exclusive); false = DC50 at/above 600 nM

compound: O=C(NN=Cc1cc[n+](Cc2ccccc2)c2ccccc12)c1ccc2ccc3ccc(C(=O)NN=Cc4cc[n+](Cc5ccccc5)c5ccccc45)nc3c2n1.[Br-].[Br-] [Compound 11c]
category: true
//
compound: C[n+]1ccc(C=NNC(=O)c2ccc3ccc4ccc(C(=O)NN=Cc5cc[n+](C)cc5)nc4c3n2)cc1.[I-].[I-] [Compound 10a]
category: true
//
compound: O=C(NN=Cc1ccc2c(ccc[n+]2Cc2ccccc2)c1)c1ccc2ccc(C(=O)NN=Cc3ccc4c(ccc[n+]4Cc4ccccc4)c3)nc2n1.[Br-].[Br-]
category: false
//
compound: O=C(NN=Cc1cc[n+](Cc2ccccc2)c2ccccc12)c1cccc(C(=O)NN=Cc2cc[n+](Cc3ccccc3)c3ccccc23)n1.[Br-].[Br-]
category: true

Every entry's value here was drawn from patent US11406631B2.
